Hey, just so you know, these numbers are from PubChem BioAssay (NCI).

Each record here notes measured TGI.
test system: KM12 colon; test: NCI tumour cell line growth inhibition, 48 h
Provide the reading as a plain figure in µM.

{"compound": "C#C[C@]1(O)CC[C@H]2[C@@H]3CCc4cc(OC(=O)c5cccc6cc7ccccc7nc56)ccc4[C@H]3CC[C@@]21C", "TGI [µM]": 50.6}
{"compound": "c1cnc2[nH]cc(-c3csc(-c4cn(CCCCN5CCOCC5)c5ccccc45)n3)c2c1", "TGI [µM]": 3.34}
{"compound": "CC1OC2CC(=O)OC2C2=C1C(=O)c1c(O)c3c(c(O)c1C2=O)C1CC(O)C3(O)C(C)O1 (stereo not given)", "TGI [µM]": 2.02}
{"compound": "O=C1/C(=C/c2ccc(O)cc2)COc2ccc(-c3ccccc3)cc21", "TGI [µM]": 7.54}

Continue with the next compound.
Prompt line: Record request: TGI value, item COc1cc(Nc2nc(N[C@H]3CCCC[C@@H]3N)nc3cc[nH]c(=O)c23)cc(OC)c1
Response line: 3.11
